# System: Escherichia coli MG1655
# Assay type: cell-based
Where a SMILES comes first, the peptide text is derived from it. [ ]: non-standard residue; d: D form.
assayEndpoint: MIC E. coli, Medium
Numeric answer plus unit only.

Measured MIC E. coli, Medium (Escherichia coli MG1655), entry CC(C)[C@@H](NC(=O)[C@H](Cc1c[nH]c2ccccc12)NC(=O)[C@H](NC(=O)[C@H](CCCCN)NC(=O)[C@@H](CCCCN)NC(=O)[C@H](CCCCN)NC(=O)[C@@H](Cc1c[nH]c2ccccc12)NC(=O)[C@@H](N)Cc1c[nH]c2ccccc12)C(C)C)C(=O)N[C@@H](CCCCN)C(=O)N[C@H](CCCCN)C(=O)N[C@@H](CCCCN)C(=O)N[C@H](Cc1c[nH]c2ccccc12)C(=O)N[C@@H](Cc1c[nH]c2ccccc12)C(N)=O [AS04] (H-W[dW]K[dK]K[dV]W[dV]K[dK]K[dW]W-NH2) : 3.13 µM
